# System: CAKI-1 renal
# Assay Info: NCI tumour cell line growth inhibition, 48 h
Result Type: TGI

Please review the following examples before continuing.
query: Which value of TGI has been reported for Cc1ccc2nc3ccccc3c(C3C4C(=O)N(c5ccc(F)cc5)C(=O)C4ON3C(C(N)=O)c3ccccc3)c2c1 (stereo not given) in the records?
result: > 100 µM

query: Which value of TGI has been reported for c1ccc(SC(Sc2ccccc2)=C2CCC2)cc1 in the records?
result: > 100 µM

query: Which value of TGI has been reported for Cn1c(-c2ccco2)ccc1-c1ccc(C=O)o1 in the records?
result: 55.2 µM

---
query: Which value of TGI has been reported for Nc1ncnc2c1ncn2[C@H]1C=C[C@@H](NO)C1 in the records?
result: > 100 µM

query: Which value of TGI has been reported for C=C(/C=C/C=C(\C)CCC=C(C)C)[C@@H]1CC[C@]2([C@H](CCCO)/C(=C(/C)C=O)CC[C@]2(C)O)[C@@H]1O in the records?
result: 60.9 µM

* * *

# Test system: MALME-3M melanoma
# Assay Info: NCI tumour cell line growth inhibition, 48 h
Result Type: TGI

Please review the following examples before continuing.
query: Which value of TGI has been reported for C[C@H](Nc1nc(N)c(N=O)c(=O)n1C)C(=O)O in the records?
result: > 10 µM

query: Which value of TGI has been reported for C(=N\Nc1ncc(-c2cc3cc4c(cc3o2)OCO4)s1)/c1ccco1 in the records?
result: 6.18 µM

query: Which value of TGI has been reported for C=C1C2CCC3C4(C)CCCC(C)(C(=O)O)C4CCC3(C2)C1OC(=O)/C(C)=C/C (stereo not given) in the records?
result: > 100 µM

query: Which value of TGI has been reported for CC1C(C)(C)C23CC12C1(OCCO1)C3Br (stereo not given) in the records?
result: > 100 µM

---
query: Which value of TGI has been reported for O=C(O)c1cccc(S(=O)(=O)NCCO)c1 in the records?
result: > 100 µM

query: Which value of TGI has been reported for CN1C(=O)CCC(N2C(=O)c3cccc(NCCOCCOCCNC(=O)c4cc5c(o4)C(=O)c4ccccc4C5=O)c3C2=O)C1=O (stereo not given) in the records?
result: 0.316 µM

query: Which value of TGI has been reported for CN(C)c1ccc(/C=N/NC(N)=S)nc1 in the records?
result: > 100 µM

query: Which value of TGI has been reported for COc1cc2nc(Nc3cccc(Cl)c3)nc(N)c2cc1OC in the records?
result: 6.62 µM

query: Which value of TGI has been reported for COC(=O)[C@H](Cc1ccccc1)NC(=O)c1ccc(CNC(=O)/C=C/c2ccc(OCc3ccccc3)cc2)cc1 in the records?
result: 11.5 µM

query: Which value of TGI has been reported for CC(=O)OCc1c(O)c2c([nH]c1=O)CCc1ccccc1-2 in the records?
result: > 35 µM

* * *

# Tested on: COLO 205 colon
# Assay Info: NCI tumour cell line growth inhibition, 48 h
Result Type: TGI

Please review the following examples before continuing.
query: Fill in the recorded TGI for this compound, with COLO 205 colon as test system: CCOP(=O)(OCC)Oc1c(OC)c2[nH]c(C(=O)OC)cc2c2c(C(=O)O)c[nH]c12
result: > 100 µM

query: Fill in the recorded TGI for this compound, with COLO 205 colon as test system: Cc1ncn(-c2ccccc2O)c1C
result: > 100 µM

query: Fill in the recorded TGI for this compound, with COLO 205 colon as test system: COC(=O)C1=C(C)NC(=O)N2[C@@H](CCOCc3ccccc3)CC[C@@H]12
result: > 50 µM

query: Fill in the recorded TGI for this compound, with COLO 205 colon as test system: CC(C)(C)C(=O)N1C(C(=O)O)Cc2ccccc2[C@@H]1Cc1ccccc1 (stereo not given in full)
result: > 100 µM

query: Fill in the recorded TGI for this compound, with COLO 205 colon as test system: Cc1cc(N)c2ccccc2[n+]1CCCCCCCCCCNc1cc(C)[n+](CCCCCCCCCC[n+]2c(C)cc(N)c3ccccc32)c2ccccc12
result: > 100 µM

query: Fill in the recorded TGI for this compound, with COLO 205 colon as test system: COc1ccc(/C=N\N(C)Cc2cccc3ccsc23)cc1
result: > 100 µM

---
query: Fill in the recorded TGI for this compound, with COLO 205 colon as test system: CC(C)(C)C1=CC(=N/N=c2\scc(-c3ccccc3)n2-c2ccccc2)C=C(C(C)(C)C)C1=O
result: > 100 µM

query: Fill in the recorded TGI for this compound, with COLO 205 colon as test system: OC1NC2Nc3ccccc3NC2NC1O (stereo not given)
result: > 100 µM

query: Fill in the recorded TGI for this compound, with COLO 205 colon as test system: CC1(C)Oc2ccc3ccc(=O)oc3c2C(O)C1O (stereo not given)
result: 45.1 µM

query: Fill in the recorded TGI for this compound, with COLO 205 colon as test system: COc1ccc(/C=C/c2cc(OC)c(OC(C)=O)c(OC)c2)cc1
result: > 100 µM

* * *

# System: A498 renal
# Assay Info: NCI tumour cell line growth inhibition, 48 h
Measured GI50, listed per entry for reference.

Please review the following examples before continuing.
query: Fill in the recorded GI50 for this molecule, with A498 renal as test system: CCOC(=O)C(=Cc1ccc(C#N)cc1)C(=O)OCC
result: 7840 nM

query: Fill in the recorded GI50 for this molecule, with A498 renal as test system: CN(C)c1ccc(/C=N/NC(N)=S)nc1
result: 1920 nM

query: Fill in the recorded GI50 for this molecule, with A498 renal as test system: COc1cc(CCC[P+](c2ccccc2)(c2ccccc2)c2ccccc2)c(OC)c2c1OCO2
result: 1410 nM

query: Fill in the recorded GI50 for this molecule, with A498 renal as test system: CC1SC(c2ccccc2Cl)N(NC(=O)C(O)c2ccccc2)C1=O (stereo not drawn)
result: 67800 nM

query: Fill in the recorded GI50 for this molecule, with A498 renal as test system: COc1ccc2c(c1)c(-c1nc(-c3cn(C)c4ccncc34)cs1)cn2C
result: 6590 nM

---
query: Fill in the recorded GI50 for this molecule, with A498 renal as test system: NCCCCC(NC(=O)C(N)CCCN=C(N)N)C(=O)NC(CCCCN)C(=O)NC(CCCN=C(N)N)C(=O)NC(CCCN=C(N)N)C(=O)NC(CCC(N)=O)C(=O)NC(CCCN=C(N)N)C(=O)NC(CCCN=C(N)N)C(=O)NC(CCCN=C(N)N)C(=O)NCC(=O)NCC(=O)O (stereo not drawn)
result: > 50000 nM

query: Fill in the recorded GI50 for this molecule, with A498 renal as test system: COc1ccc(-c2ncnc3c2ncn3CC#CCCl)cc1
result: 2150 nM

query: Fill in the recorded GI50 for this molecule, with A498 renal as test system: CC1=C([Te]c2ccccc2)C(=O)c2ccccc2C1=O
result: 239 nM

query: Fill in the recorded GI50 for this molecule, with A498 renal as test system: O=S(=O)(N=C1C(Cl)=C(Cl)C(=NS(=O)(=O)c2ccccc2)C(Cl)=C1Cl)c1ccccc1
result: 15900 nM

query: Fill in the recorded GI50 for this molecule, with A498 renal as test system: COc1ccc(Nc2nc(NCCNc3ccnc4cc(Cl)ccc34)nc(N3CCOCC3)n2)cc1
result: 272 nM

query: Fill in the recorded GI50 for this molecule, with A498 renal as test system: CN1C(=O)CCC(N2C(=O)c3cccc(NCCOCCOCCNC(=O)c4cc5c(o4)C(=O)c4ccccc4C5=O)c3C2=O)C1=O (stereo not drawn)
result: 1710 nM

query: Fill in the recorded GI50 for this molecule, with A498 renal as test system: CC1(C)N=C(N)N=C(N)N1c1ccc(CNC(=O)Nc2ccc(S(=O)(=O)F)c(Cl)c2)c(Cl)c1
result: 9500 nM

query: Fill in the recorded GI50 for this molecule, with A498 renal as test system: COc1cc(-c2nn(-c3cccc(NC(=O)Nc4ccc(Cl)c(C(F)(F)F)c4)c3)cc2-c2ccncc2)ccc1Cl
result: 837 nM

* * *

# System: SK-MEL-5 melanoma
# Assay Info: NCI tumour cell line growth inhibition, 48 h
Result Type: TGI (µM)
Give just the number in µM; leave the unit off.

Please review the following examples before continuing.
query: Which value of TGI has been reported for CCOC(=O)C(=Cc1ccc(C#N)cc1)C(=O)OCC in the records?
result: 3.67

query: Which value of TGI has been reported for CC(C)(C)c1cc(/C=C(\C#N)C2=NCCO2)cc(C(C)(C)C)c1O in the records?
result: 5.62

query: Which value of TGI has been reported for CC1=C(C#N)C23C(=O)N(c4ccccc4)C(=O)C2=C(O)C=CC3(O)N1Cc1ccc(Cl)cc1Cl (stereo not drawn) in the records?
result: 17

query: Which value of TGI has been reported for COc1ccc(Nc2nc(NCCNc3ccnc4cc(Cl)ccc34)nc(N3CCOCC3)n2)cc1 in the records?
result: 3.04

query: Which value of TGI has been reported for COC(=O)C1CCC(=O)N1C(c1ccc(OC)cc1)c1cc(OC)c(OC)c(OC)c1 (stereo not drawn) in the records?
result: 3.43

---
query: Which value of TGI has been reported for CC1OC(OC2C(O)COC(OC3C(C)OC(OC4C(OC(=O)[C@]56CCC(C)(C)C[C@@H]5C5=CCC7[C@@]8(C)C[C@H](O)[C@H](OC9OC(CO)C(O)C(O)C9O)[C@@](C)(CO)[C@@H]8CC[C@@]7(C)[C@]5(C)CC6)OCC(O)C4O)C(O)C3O)C2O)C(O)C(O)C1O (stereo partly drawn) in the records?
result: 39.8

query: Which value of TGI has been reported for COC[C@H](NC(=O)c1cnc(C)s1)C(=O)N[C@@H](COC)C(=O)N[C@@H](Cc1ccccc1)C(=O)[C@@]1(C)CO1 in the records?
result: 47.1

query: Which value of TGI has been reported for CCC(CC)n1cnc2c(-c3cnc(N)cn3)nc(N3CC4CCC(C3)O4)nc21 in the records?
result: 1.21
